biological target: OXE receptor (Homo sapiens, UniProt Q8TDS5); experiment: 5-oxo-ETE-induced calcium mobilization in human granulocytes; assay type: cell-based; set-up: Human granulocytes 95% neutrophils) are prepared from whole blood; endogenous in cells; host or cells: human blood granulocytes (>=95% neutrophils); conditions: 5-oxo-ETE 10 nM; human granulocytes; Table 2; read-out: IC50 (μM) Ca^++
Sequence (Q8TDS5 whole entry): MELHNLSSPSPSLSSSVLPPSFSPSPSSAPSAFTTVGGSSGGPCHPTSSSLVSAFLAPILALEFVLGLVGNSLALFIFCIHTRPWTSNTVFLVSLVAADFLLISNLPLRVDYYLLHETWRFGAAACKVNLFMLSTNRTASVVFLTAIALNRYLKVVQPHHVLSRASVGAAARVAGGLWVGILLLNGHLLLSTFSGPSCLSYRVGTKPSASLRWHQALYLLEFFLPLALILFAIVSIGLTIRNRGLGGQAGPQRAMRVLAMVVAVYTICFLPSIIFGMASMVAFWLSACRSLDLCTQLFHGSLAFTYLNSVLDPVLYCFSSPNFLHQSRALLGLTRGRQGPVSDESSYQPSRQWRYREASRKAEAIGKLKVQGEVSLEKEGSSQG
measured_parameter: IC50

Using known records, supply IC50 for CCCCCCc1c(C(=O)CC(C)CC(=O)NC(C)c2ccccc2)c2cc(Cl)ccc2n1C (stereo not drawn) [Compound 105] > 10 µM

Complete the entry with IC50 for CCCCCCc1c(C(=O)C[C@@H](C)CC(=O)NC(C)c2ccccc2)c2cc(Cl)ccc2n1C (stereo partly drawn) [Compound 106] > 10 µM

Tell me IC50 reported for CCCCCCc1cc2ccc(Cl)cc2n1C(=O)CCC(C)(C)C(=O)O [Compound 116] > 10 µM

Read the entry CC(C)CCCCc1c(C(=O)CC(C)CC(=O)O)c2cc(Cl)ccc2n1C (stereo not drawn) [Compound 114] and write its reported IC50. 0.011 µM

Give me measured IC50, please, for this compound: CC(C)CCCCc1c(C(=O)CC(C)CC(=O)O)c2ccc(Cl)cc2n1C (racemic) [Compound 109] 0.175 µM

Report IC50 for CCCCCCc1cc2ccccc2n1C(=O)CC(C)CC(=O)O (stereo not drawn) [Compound 2] 0.09 µM

====

target: OXE receptor (Homo sapiens); test: 5-oxo-ETE-induced calcium mobilization in human granulocytes; assay type: cell-based; parameters: Human granulocytes 95% neutrophils) are prepared from whole blood; endogenous in cells; host or cells: human blood granulocytes (>=95% neutrophils); details: Table 3; position of hexyl/hexenyl on the scaffold; readout not given, values match Ca^++; read-out: IC50
What IC50 was measured for each of the following?

Supply IC50 value. Item: CCCCCCc1cc2ccccc2n1C(=O)CCCC(=O)O 1 µM

Retrieve IC50 measured for CCCC/C=C/c1cccc2ccn(C(=O)CCCC(=O)O)c12 and print it. > 10 µM

Give the reported IC50 for this compound. CCCCCCc1ccc2c(ccn2C(=O)CCCC(=O)O)c1 > 30 µM
